Tested on: SKMEL-2
Details: 96 h
Experimental Readout: IC50 (nM)
Just the number in nM, nothing appended.

Ask: What measured IC50 goes with CC[C@H](C)[C@H](NC(=O)[C@@H](CC(C)C)NC(=O)O[C@@H]1CC[C@@H](C[C@@H](C)[C@@H]2CC(=O)[C@H](C)/C=C(\C)[C@@H](O)[C@@H](OC)C(=O)[C@H](C)C[C@H](C)/C=C/C=C/C=C(\C)[C@@H](OC)C[C@@H]3CC[C@@H](C)[C@@](O)(O3)C(=O)C(=O)N3CCCC[C@H]3C(=O)O2)C[C@H]1OC)C(=O)N[C@H](CO)Cc1ccccc1 ?
Reply: 358

Kindly review the next compound as well.
Ask: Quick one: IC50 for CC[C@H](C)[C@H](NC(=O)[C@H](CC(C)C)NC(=O)[C@H](C)NC(=O)[C@H](Cc1cn(C(c2ccccc2)(c2ccccc2)c2ccccc2)cn1)NC(=O)O[C@@H]1CC[C@@H](C[C@@H](C)[C@@H]2CC(=O)[C@H](C)/C=C(\C)[C@@H](O)[C@@H](OC)C(=O)[C@H](C)C[C@H](C)/C=C/C=C/C=C(\C)[C@@H](OC)C[C@@H]3CC[C@@H](C)[C@@](O)(O3)C(=O)C(=O)N3CCCC[C@H]3C(=O)O2)C[C@H]1OC)C(=O)N[C@@H](CO)Cc1ccccc1 ?
Reply: 416
